The measurements presented in this section are drawn from ChEMBL document CHEMBL3611982.

Assay: Selectivity index, ratio of CC50 for HEK293T cells to EC50 for wild type bloodstream form of Trypanosoma brucei s427 trypomastigotes
Type: toxicity, cell-based, HEK-293T
Conditions: human, read-out: Ratio CC50/EC50
Give measured selectivity ratio for each item. Keep answers brief.

*Q* Give a short answer stating reported selectivity ratio for O=C(Nc1ccc(N=C2NCCN2)cc1)c1ccc(N=C2NCCN2)c(Cl)c1 .
*A* > 200

*Q* Give a short answer stating reported selectivity ratio for O=C(Nc1ccc(N=C2NCCN2)cn1)c1ccc(N=C2NCCN2)cc1 .
*A* > 190

*Q* Give a short answer stating reported selectivity ratio for O=C(Nc1ccc(N=C2NCCN2)cc1)c1ccc(N=C2NCCN2)cc1Cl .
*A* > 150

*Q* Give a short answer stating reported selectivity ratio for O=C(Nc1ccc(N=C2NCCN2)c(Cl)c1)c1ccc(N=C2NCCN2)cc1 .
*A* > 900

*Q* Give a short answer stating reported selectivity ratio for O=C(Nc1ccc(N=C2NCCN2)c(F)c1)c1ccc(N=C2NCCN2)cc1 .
*A* > 340

*Q* Give a short answer stating reported selectivity ratio for O=C(Nc1ccc(N=C2NCCN2)cc1Cl)c1ccc(N=C2NCCN2)cc1 .
*A* > 45

*Q* Give a short answer stating reported selectivity ratio for O=C(Nc1ccc(N=C2NCCN2)cc1F)c1ccc(N=C2NCCN2)cc1 .
*A* > 120

*Q* Give a short answer stating reported selectivity ratio for O=C(Nc1ccc(N=C2NCCN2)cc1)c1ccc(N=C2NCCN2)c(F)c1 .
*A* > 370

*Q* Give a short answer stating reported selectivity ratio for O=C(Nc1ccc(N=C2NCCN2)cc1)c1ccc(N=C2NCCN2)cc1F .
*A* > 420

*Q* Give a short answer stating reported selectivity ratio for O=C(Nc1ccc(NC2=NCCN2)cc1)c1ccc(NC2=NCCN2)cc1 .
*A* > 240
